- MEASURED_ON: T1, human PCSK9 (proprotein convertase subtilisin kexin type 9) (human, UniProt Q8NBP7 31-692)
- T1 construct: immobilized directly (ProteOn), biotinylated (Octet) or in solution, according to the assay; also called hPCSK9; PCSK9-AF647 (labelled form)
- ASSAY_METHOD_TEXT: PCSK9:EGFA FRET, competitor EGFA peptide
REPORTED_PROPERTY: EC50 (nM)

binder="2382C11 (designed binder) MGVSDVPRDLEVVAATPTSLLISWDAPAGGYGYYRITYGETGGNSPVQEFTVPVSKGTATISGLKPGVDYTITVYAVEYDFAGSGYYHRPISINYRTEIDKPSQHHHHHH" reported_property=EC50 obs_value=3.7
binder="2382H07 (designed binder) MGVSDVPRDLEVVAATPTSLLISWDAPADAYGYYRITYGETGGNSPVQEFTVPGSKGTATISGLKPGVDYTITVYAVEFDFPGSGYYHRPISINYRTEIDKPSQHHHHHH" reported_property=EC50 obs_value=2.7
binder="2382F09 (designed binder) MGVSDVPRDLEVVAATPTSLLISWDAPAAAYGYYRITYGETGGNSPVQEFTVPVSKGTATISGLKPGVDYTITVYAVEYDFPGSGYYHRPISINYRTEIDKPSQHHHHHH" reported_property=EC50 obs_value=3.1
binder="2381B06 (designed binder) MGVSDVPRDLEVVAATPTSLLISWEPFSRLPGGGEYYRITYGETGGNSPLQQFTVPGSKGTATISGLKPGVDYTITVYAVEYPYPHSGYYHRPISINYRTEIDKPSQHHHHHH" reported_property=EC50 obs_value=3.5
binder="2381H01 (designed binder) MGVSDVPRDLEVVAATPTSLLISWSPRDSTGLVRRGYYRITYGETGGNSPVQQFTVPGSKGTATISGLKPGVDYTITVYAVEYPYDHSGYYHRPISINYRTEIDKPSQHHHHHH" reported_property=EC50 obs_value=4
binder="2381H09 (designed binder) MGVSDVPRDLEVVAATPTSLLISWDAPAGGGYGYYRITYGETGGNSPVQEFTVPVSKGTATISGLKPGVDYTITVYAVEFDFVGAGYYHRPISINYRTEIDKPSQHHHHHH" reported_property=EC50 obs_value=3.4
binder="2381B02 (designed binder) MGVSDVPRDLEVVAATPTSLLISWEPFSRLPGGGEYYRITYGETGGNSPLQQFTVPGSKGTATISGLKPGVDYTITVYAVEYPYDYSGYYHRPISINYRTEIDKPSQHHHHHH" reported_property=EC50 obs_value=2.5
binder="2381D02 (designed binder) MGVSDVPRDLEVVAATPTSLLISWEPFSRLPGGGEYYRITYGETGGNSPLQQFTVPGSKGTATISGLKPGVDYTITVYAVEYPYDHSGYYHRPISINYRTEIDKPSQHHHHHH" reported_property=EC50 obs_value=3.1
binder="2382H11 (designed binder) MGVSDVPRDLEVVAATPTSLLISWDAPADGYGYYRITYGETGGNSPVQEFTVPVFKGTATISGLKPGVDYTITVYAVEFDYPGSGYYHRPISINYRTEIDKPSQHHHHHH" reported_property=EC50 obs_value=2.9
